Biological target: Yer184c (UniProt P39961)
Sequence: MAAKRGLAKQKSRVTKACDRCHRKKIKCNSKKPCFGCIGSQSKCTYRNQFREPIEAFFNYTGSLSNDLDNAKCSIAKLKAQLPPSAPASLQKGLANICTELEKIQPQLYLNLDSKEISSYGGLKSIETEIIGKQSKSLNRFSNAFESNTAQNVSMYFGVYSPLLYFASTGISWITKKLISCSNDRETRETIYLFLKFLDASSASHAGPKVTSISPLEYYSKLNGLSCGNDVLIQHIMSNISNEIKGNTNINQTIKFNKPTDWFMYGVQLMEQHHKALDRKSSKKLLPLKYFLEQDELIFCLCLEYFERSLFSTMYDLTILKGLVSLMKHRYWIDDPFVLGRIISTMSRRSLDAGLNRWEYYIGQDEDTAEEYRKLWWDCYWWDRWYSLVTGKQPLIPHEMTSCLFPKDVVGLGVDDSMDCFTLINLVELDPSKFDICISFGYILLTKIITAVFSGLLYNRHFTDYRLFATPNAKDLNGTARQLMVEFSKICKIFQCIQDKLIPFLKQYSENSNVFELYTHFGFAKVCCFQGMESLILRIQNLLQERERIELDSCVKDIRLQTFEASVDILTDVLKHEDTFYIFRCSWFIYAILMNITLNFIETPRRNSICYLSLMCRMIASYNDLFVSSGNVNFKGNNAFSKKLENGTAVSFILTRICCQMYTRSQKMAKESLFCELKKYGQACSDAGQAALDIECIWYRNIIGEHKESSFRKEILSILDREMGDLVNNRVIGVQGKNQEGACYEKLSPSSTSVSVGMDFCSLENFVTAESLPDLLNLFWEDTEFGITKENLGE
Assay: PBM E-score (8-mer binding enrichment) (E-score (-0.5 to 0.5)); higher = stronger / more preferred TF binding
Conditions: protein concentration: 100 nM; construct: GST-full length
Over roughly 33,000 sequences, “E-score (-0.5 to 0.5)” has its median near -0.016; the highest 2% begin near 0.3. The sample as a whole holds a higher share of the highest values than the screen did.
ENDPOINT LABEL: PBM E-score

1. ATTAGCGC : 0.056
2. CGGGAAGC : 0.138
3. CCGTTCAA : 0.197
4. ATACTCCA : -0.081
5. AGGAAACA : 0.165
6. GGGCAACC : -0.121
7. CGTGCGCC : 0.0367
8. AGCTGGAC : -0.0983
9. GCGCCGCC : 0.122
10. AAACTCCG : 0.319
11. GGGAAACA : 0.22
12. GCGCCGCA : 0.166
13. AAGCTCCT : -0.237
14. CGGAGACC : 0.0297
15. CAGCTCCG : 0.222
16. CTTCAAGA : 0.171
17. CCTGGTTC : -0.0462
18. CGGGAAGA : 0.315
19. GACGCTTA : -0.148
20. CAGATCGA : -0.0498
21. AAGCTCCG : 0.339
22. ATCGTGGC : -0.101
